Reference for the values: patent US20250353873A1

Give measured IC50 for each item. Keep answers brief.
# Test system: human APOE RNA
# Assay protocol: Dose-dependent inhibition of human APOE RNA in HepG2 cells, electroporation, 24 hours (Example 6)
# Format: cell-based
Strand notation (5' to 3'): a small letter for the sugar, then the base; units joined by * are phosphorothioate-linked, units joined directly phosphodiester-linked; [ ] holds rarer units or linkages, { } end groups; capitals alone tell only the bases. [ms] = mesyl phosphoramidate linkage; e = 2'-O-(2-methoxyethyl) (MOE); k = constrained ethyl (cEt); [5mC] = 5-methylcytosine; d = 2'-deoxy (DNA)
// units = nM; emit number, no label

I would be grateful if you could share the reported IC50 for 1736533 (e[5mC]*eT*eT*eG*eGeT*dG[ms]dA[ms]dA[ms]dT*d[5mC]*dT*dT*dT*dA[ms]dT*kT*eA*eA*eA; antisense) [Compound 1736533] .
390

I would be grateful if you could share the reported IC50 for 1736522: 6-10-4 MOE gapmer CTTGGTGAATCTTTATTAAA, linkages sooosszzssssssssoss (e[5mC]*eTeTeGeG*eT*dG[ms]dA[ms]dA*dT*d[5mC]*dT*dT*dT*dA*dT*eTeA*eA*eA) [compound 1736522] .
1380

I would be grateful if you could share the reported IC50 for 1693101: 6-10-4 MOE gapmer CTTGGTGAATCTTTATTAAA, linkages sssssozzzssssszssss (e[5mC]*eT*eT*eG*eG*eTdG[ms]dA[ms]dA[ms]dT*d[5mC]*dT*dT*dT*dA[ms]dT*eT*eA*eA*eA) [compound 1693101] .
4030

I would be grateful if you could share the reported IC50 for 1736521: 6-10-4 MOE gapmer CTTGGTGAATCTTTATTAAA, linkages sosssszzzsssssssoss (e[5mC]*eTeT*eG*eG*eT*dG[ms]dA[ms]dA[ms]dT*d[5mC]*dT*dT*dT*dA*dT*eTeA*eA*eA) [compound 1736521] .
400

----------
# System: human APOE RNA
# Assay protocol: Dose-dependent inhibition of human APOE RNA in HepG2 cells, electroporation, 24 hours (Example 6)
# Format: cell-based
Strand notation (5' to 3'): a small letter for the sugar, then the base; units joined by * are phosphorothioate-linked, units joined directly phosphodiester-linked; [ ] holds rarer units or linkages, { } end groups; capitals alone tell only the bases. [ms] = mesyl phosphoramidate linkage; e = 2'-O-(2-methoxyethyl) (MOE); [5mC] = 5-methylcytosine; d = 2'-deoxy (DNA)
Measured property: IC50 (nM)
// units = nM; emit number, no label

I would be grateful if you could share the reported IC50 for 1736518: 6-10-4 MOE gapmer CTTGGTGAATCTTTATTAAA, linkages soossszzzssssssssss (e[5mC]*eTeTeG*eG*eT*dG[ms]dA[ms]dA[ms]dT*d[5mC]*dT*dT*dT*dA*dT*eT*eA*eA*eA) [compound 1736518] .
720

I would be grateful if you could share the reported IC50 for 1736520: 6-10-4 MOE gapmer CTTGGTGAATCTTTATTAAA, linkages sossoszzzssssssssss (e[5mC]*eTeT*eG*eGeT*dG[ms]dA[ms]dA[ms]dT*d[5mC]*dT*dT*dT*dA*dT*eT*eA*eA*eA) [compound 1736520] .
570

I would be grateful if you could share the reported IC50 for 1736525: 6-10-4 MOE gapmer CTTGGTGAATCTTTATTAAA, linkages sooosszzsssssssssss (e[5mC]*eTeTeGeG*eT*dG[ms]dA[ms]dA*dT*d[5mC]*dT*dT*dT*dA*dT*eT*eA*eA*eA) [compound 1736525] .
1280

I would be grateful if you could share the reported IC50 for 1736524: 6-10-4 MOE gapmer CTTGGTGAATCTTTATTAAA, linkages sssooozzssssssssoss (e[5mC]*eT*eT*eGeGeTdG[ms]dA[ms]dA*dT*d[5mC]*dT*dT*dT*dA*dT*eTeA*eA*eA) [compound 1736524] .
1090
